Values from patent US20250296948A1

- TEST METHOD NOTES: 6 month dry powder stability, HPLC assay
- Assay type: physicochemical
- CONDITION SUMMARY: 40 ° C., 1 month
HPLC assay (% w/w on anhydrous and solvent free basis) listing for selected compounds.
Numbers only here, please. The scale is % w/w.

# count of solved cases: 3
C[C@H](NP(=O)(OC[C@H]1O[C@@H](n2cc(F)c(=O)[nH]c2=O)CC1O)Oc1cccc2ccccc12)C(=O)OCc1ccccc1 (stereo partly shown) [Example 3, Batch 3]    100.6
C[C@H](NP(=O)(OC[C@H]1O[C@@H](n2cc(F)c(=O)[nH]c2=O)CC1O)Oc1cccc2ccccc12)C(=O)OCc1ccccc1 (stereo partly shown) [Comparative Example 4]    99.3
C[C@H](NP(=O)(OC[C@H]1O[C@@H](n2cc(F)c(=O)[nH]c2=O)CC1O)Oc1cccc2ccccc12)C(=O)OCc1ccccc1 (stereo partly shown) [Example 3, Batch 1]    100.0

Next compound, please.
Lookup: Query: HPLC assay (% w/w on anhydrous and solvent free basis); subject: C[C@H](NP(=O)(OC[C@H]1O[C@@H](n2cc(F)c(=O)[nH]c2=O)CC1O)Oc1cccc2ccccc12)C(=O)OCc1ccccc1 (stereo partly shown) [Example 3, Batch 2]
Found: 99.7
